# target entity: human MCH receptor expressed from the open reading frame cDNA SEQ. ID. NO. 1 in 293-AEQ17 cells (human, UniProt Q99705 1-353)
# Sequence (Q99705 whole entry): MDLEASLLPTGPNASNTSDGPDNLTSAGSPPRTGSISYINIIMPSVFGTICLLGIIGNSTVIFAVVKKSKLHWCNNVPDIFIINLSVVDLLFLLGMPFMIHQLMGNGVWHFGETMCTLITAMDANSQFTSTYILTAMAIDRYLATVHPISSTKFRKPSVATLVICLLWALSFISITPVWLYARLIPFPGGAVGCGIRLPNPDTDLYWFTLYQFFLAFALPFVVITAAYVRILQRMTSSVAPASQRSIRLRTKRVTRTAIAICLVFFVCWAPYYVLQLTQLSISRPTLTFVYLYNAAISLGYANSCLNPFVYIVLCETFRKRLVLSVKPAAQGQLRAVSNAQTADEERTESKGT
# assay notes: cell-based or functional assay
Bridges are numbered along the chain shown (N, C = ends). Where no end group is shown, it is not given here.
experimental endpoint: EC50 (nM)
Only the number, expressed in nM, is required.

Please review the entries below; each comes with its answer.
1) PCMLGRVYRPC (Ac-Pro at position 6 (N-terminal acetyl); C-terminal amide, Cys-Cys disulfide as in SEQ. ID. NO. 7, ID; NO; 7 peptide; MCH position numbering) [MCH analog SEQ. ID. NO. 33 (position 6: Ac-Pro)]    59
2) NCMLGRVYRPC (Ac-Asn at position 6 (N-terminal acetyl); C-terminal amide, Cys-Cys disulfide as in SEQ. ID. NO. 7, ID; NO; 7 peptide; MCH position numbering) [MCH analog SEQ. ID. NO. 34 (position 6: Ac-Asn)]    150
3) ECMLGRVYRPC (Ac-Glu at position 6 (N-terminal acetyl); C-terminal amide, Cys-Cys disulfide as in SEQ. ID. NO. 7, ID; NO; 7 peptide; MCH position numbering) [MCH analog SEQ. ID. NO. 36 (position 6: Ac-Glu)]    935

Memo: RCMLGRVYRPC-NH2 (disulfide 2-11 (inferred), ID; NO; 7 peptide; MCH position numbering) [MCH analog SEQ. ID. NO. 39 (position 6: Arg)] , reported EC50: 14

Data point: H-CMLGRVYRPC-NH2 (disulfide 1-10, ID; NO; 7 peptide; MCH position numbering) [MCH analog SEQ. ID. NO. 37 (position 6: H)] ; EC50 = 809

Noted for XCMLGRVYRPC (Ac-D-Nle at position 6; C-terminal amide, Cys-Cys disulfide as in SEQ. ID. NO. 7, ID; NO; 7 peptide; MCH position numbering) [MCH analog SEQ. ID. NO. 42 (position 6: Ac-D-Nle)] : its EC50 reads 110

Notebook: Ac-ACMLGRVYRPC-NH2 (disulfide 2-11; SMILES CSCC[C@@H]1NC(=O)[C@@H](NC(=O)[C@H](C)NC(C)=O)CSSC[C@@H](C(N)=O)NC(=O)[C@@H]2CCCN2C(=O)[C@H](CCCNC(=N)N)NC(=O)[C@H](Cc2ccc(O)cc2)NC(=O)[C@H](C(C)C)NC(=O)[C@H](CCCNC(=N)N)NC(=O)CNC(=O)[C@H](CC(C)C)NC1=O, ID; NO; 7 peptide; MCH position numbering) [MCH analog SEQ. ID. NO. 31 (position 6: Ac-Ala)] , EC50 read as 114

Notebook: XCMLGRVYRPC (Ac-D-Arg at position 6; C-terminal amide, Cys-Cys disulfide as in SEQ. ID. NO. 7, ID; NO; 7 peptide; MCH position numbering; 15 (D-Arg^6)) [MCH analog SEQ. ID. NO. 41 (position 6: Ac-D-Arg)] , EC50 read as 45

The values you see were collected from patent US20030105278A1.
